biological target: SRSF protein kinase 1 (Homo sapiens) (UniProt Q96SB4); settings: at 0.1 µM;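 further: values are mean percent inhibition of SRPK1 kinase, measured in the GSK PKIS screening panel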
Sequence (Q96SB4 whole entry): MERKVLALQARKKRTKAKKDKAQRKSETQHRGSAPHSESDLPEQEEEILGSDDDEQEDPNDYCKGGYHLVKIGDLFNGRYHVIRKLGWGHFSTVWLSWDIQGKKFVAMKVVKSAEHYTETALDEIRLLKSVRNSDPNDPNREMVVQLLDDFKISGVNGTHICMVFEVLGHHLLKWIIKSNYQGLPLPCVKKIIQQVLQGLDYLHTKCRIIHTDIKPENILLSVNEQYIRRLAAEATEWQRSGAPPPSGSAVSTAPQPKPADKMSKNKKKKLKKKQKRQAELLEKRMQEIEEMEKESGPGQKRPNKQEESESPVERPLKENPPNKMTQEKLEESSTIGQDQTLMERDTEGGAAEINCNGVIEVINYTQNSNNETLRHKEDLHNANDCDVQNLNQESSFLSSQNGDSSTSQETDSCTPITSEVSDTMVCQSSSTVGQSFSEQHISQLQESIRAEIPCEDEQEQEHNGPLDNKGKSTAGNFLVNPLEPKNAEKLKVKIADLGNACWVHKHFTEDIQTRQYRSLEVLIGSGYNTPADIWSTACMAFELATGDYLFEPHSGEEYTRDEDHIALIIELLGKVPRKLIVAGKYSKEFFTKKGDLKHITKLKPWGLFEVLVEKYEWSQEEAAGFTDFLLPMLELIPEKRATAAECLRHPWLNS
Endpoint label: inhibition (%)
Give the number; % is assumed, so skip it.

- Structure notation: "CN(C)c1cc2c(Nc3ccc4nc(Cc5ccccc5)[nH]c4c3)ncnc2cn1"
  Reading unit: "%"
  Endpoint result: -1.74

Incoming: Specify measured inhibition for `CCCN1CCC=C(c2ccc(Nc3nc(Nc4ccccc4C(N)=O)c4cc[nH]c4n3)c(C)c2)C1` .
Outgoing: -2.75

Incoming: Specify measured inhibition for `CS(=O)(=O)CCNCc1ccc(-c2ccc3ncnc(Nc4ccc(OCc5cccc(F)c5)c(C(F)(F)F)c4)c3c2)o1` .
Outgoing: -1.9

Incoming: Specify measured inhibition for `CCn1c(-c2nonc2N)nc2cnc(Oc3cccc(NC(=O)c4ccc(OCCN5CCOCC5)cc4)c3)cc21` .
Outgoing: -1.96

----------
Entries and their measured inhibition follow.
target: Dual specificity tyrosine-phosphorylation-regulated kinase 2 (Homo sapiens) (UniProt Q92630); details: at 0.1 µM;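 further: values are mean percent inhibition of DYRK2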
Sequence (Q92630 whole entry): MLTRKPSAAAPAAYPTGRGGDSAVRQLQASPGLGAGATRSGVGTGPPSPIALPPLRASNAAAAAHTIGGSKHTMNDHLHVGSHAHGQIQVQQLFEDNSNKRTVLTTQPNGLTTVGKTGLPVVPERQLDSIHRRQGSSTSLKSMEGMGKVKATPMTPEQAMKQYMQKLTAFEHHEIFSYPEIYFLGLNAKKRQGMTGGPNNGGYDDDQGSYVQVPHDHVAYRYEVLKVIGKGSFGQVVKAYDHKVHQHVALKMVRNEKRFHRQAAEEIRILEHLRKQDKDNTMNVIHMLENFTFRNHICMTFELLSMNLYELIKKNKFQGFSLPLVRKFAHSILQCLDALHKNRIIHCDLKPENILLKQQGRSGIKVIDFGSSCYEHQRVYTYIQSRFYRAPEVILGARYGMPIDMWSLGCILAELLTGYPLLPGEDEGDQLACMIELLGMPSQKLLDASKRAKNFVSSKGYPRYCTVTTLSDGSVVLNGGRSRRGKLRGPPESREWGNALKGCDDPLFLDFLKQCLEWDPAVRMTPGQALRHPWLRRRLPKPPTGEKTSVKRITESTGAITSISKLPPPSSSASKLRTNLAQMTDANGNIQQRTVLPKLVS
Give the number; % is assumed, so skip it.

The cases that follow already have their inhibition on record.
- Compound: "NCc1ccc(-c2nc(-c3ccc(Cl)c(O)c3)c(-c3ccncc3)[nH]2)cc1"
  Reading unit: "%"
  Endpoint result: 0.33
- Compound: "COC(=O)Nc1nc2cc(Oc3ccc(NC(=O)Nc4cccc(C(=O)O)c4)cc3)ccc2[nH]1"
  Reading unit: "%"
  Endpoint result: 0.41
- Compound: "CC1=C(C(=O)Nc2ccc3[nH]ncc3c2)C(c2ccc3ccccc3c2)CC(=O)N1 (stereo not given)"
  Reading unit: "%"
  Endpoint result: 0.96
- Compound: "Nc1ncnc2occ(-c3ccc(NC(=O)Nc4cc(C(F)(F)F)cc(C(F)(F)F)c4)cc3)c12"
  Reading unit: "%"
  Endpoint result: 1.71
- Compound: "CCn1c(-c2nonc2N)nc2c(C#CC(C)(C)O)nc(OC[C@@H](N)c3ccccc3)cc21"
  Reading unit: "%"
  Endpoint result: -1.52

Incoming: Specify measured inhibition for `Cn1cc(C=C2C(=O)Nc3cccnc32)c2ccccc21` .
Outgoing: 2.52

Incoming: Specify measured inhibition for `COc1ccc(COc2ccc(Cc3cnc(N)nc3N)cc2OC)cc1` .
Outgoing: -0.01

Incoming: Specify measured inhibition for COc1ccc2cc(-c3c(-c4ccncc4)nc(-c4ccc([S+](C)[O-])cc4)n3C)ccc2c1 (stereo not given) .
Outgoing: 3.31

----------
Entries and their measured inhibition follow.
target: Casein kinase I isoform alpha (Homo sapiens); conditions: at 0.1 µM;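 further: values are the mean percent inhibition of CK1a, averaged over measurements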
Give the number; % is assumed, so skip it.

The cases that follow already have their inhibition on record.
- Structure notation: "O=C1NC(=O)C(c2ccc(Cl)cc2)=C1Nc1ccc(Cl)c(C(=O)O)c1"
  Target entity: "Casein kinase I isoform alpha (Homo sapiens)"
  Endpoint result: 0.85
- Structure notation: "Nc1nc(-c2ccc3c(c2)C(=Cc2cc(Br)c(O)c(Br)c2)C(=O)N3)cs1"
  Target entity: "Casein kinase I isoform alpha (Homo sapiens)"
  Endpoint result: -0.89
- Structure notation: "Cn1cc(C=C2C(=O)Nc3cccnc32)c2ccccc21"
  Target entity: "Casein kinase I isoform alpha (Homo sapiens)"
  Endpoint result: 3.21
- Structure notation: "O=C1NC(=O)C(c2ccccc2Cl)=C1Nc1cccc(O)c1"
  Target entity: "Casein kinase I isoform alpha (Homo sapiens)"
  Endpoint result: 4.13

Incoming: Specify measured inhibition for `CCn1c(-c2nonc2N)nc2c(C#CC(C)(C)O)nc(OC[C@@H](N)c3ccccc3)cc21` .
Outgoing: -0.17
